target: T1, human NGF-Fc protein (human, UniProt P01138 122-241, limits assumed); assay: BLI (Octet Red), human NGF-Fc captured on anti-human Fc sensors, Fab in solution
T1 construct: not shown: human IgG1 Fc or IgG4 Fc
T1 sequence (P01138 122-241 limits assumed): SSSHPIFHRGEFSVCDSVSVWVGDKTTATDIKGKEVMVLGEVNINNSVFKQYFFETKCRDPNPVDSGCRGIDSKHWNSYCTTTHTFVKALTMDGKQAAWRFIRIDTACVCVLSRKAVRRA
// reported kon for each item listed

{"columns": ["Binder", "kon / M⁻¹ s⁻¹"],
 "data": [
  ["Ab16 Fab (Fab, V domains shown) VH: EVQLVQSGAEVKKPGATVKISCKVSGYSFITYWISWVQQAPGKGLEWMGAIDPSDSDARYSPSFQGRVTITADTSTDTAYMELSSLRSEDTAVYYCAKSDPGYSGYSLLYGFDSWGQGTLVTVSS VL: DVVMTQSPLSLPVTLGQPASISCRSSQSLVQRNGNTYLSWFQQRPGQPPRLLIYQVSNRYSGVPDRFSGSGSGTDFTLKISRVEAEDVGVYYCGQGAHLPLTFGQGTKVEIK", 51700],
  ["Ab54 Fab (Fab, V domains shown) VH: EVQLVQSGAEVKKPGESLKISCKISGYSFITYWISWVRQMPGKGLEWMGAIDPSDSDARYSPSFQGQVTISADKSISTAYLQWSSLKASDTAMYYCAKSDPGYSGYSLLYGFDSWGQGTLVTVSS VL: DVVMTQSPLSLPVTLGQPASISCRSSQSLVQRNGNTYLSWYQQRPGQSPRLLIYQVSNRYSGVPDRFSGSGSGTDFTLKISRVEAEDVGVYYCGQGAHLPLTFGQGTKVEIK", 300000],
  ["Ab4 Fab (Fab, V domains shown) VH: EVQLVQSGAEVKKPGATVKISCKVSGYTFITYWISWVQQAPGKGLEWMGAIDPSDSDARYSPSFQGRVTITADTSTDTAYMELSSLRSEDTAVYYCAKSDPGYSGYSLLYGFDSWGQGTLVTVSS VL: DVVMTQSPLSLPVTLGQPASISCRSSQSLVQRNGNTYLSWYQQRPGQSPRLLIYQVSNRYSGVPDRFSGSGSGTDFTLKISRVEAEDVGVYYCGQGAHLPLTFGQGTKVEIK", 401000],
  ["Ab37 Fab (Fab, V domains shown) VH: EVQLVQSGAEVKKPGATVKISCKVSGYTFITYWISWVQQAPGKGLEWMGAIDPSDSDARYSPSFQGRVTITADKSTDTAYMELSSLRSEDTAVYYCAKSDPGYSGYSLLYGFDSWGQGTLVTVSS VL: DIVMTQSPLSLPVTLGQPASISCRSSQSLVQRNGNTYLSWFQQRPGQSPRLLIYQVSNRYSGVPDRFSGSGSGTDFTLKISRVEAEDVGVYYCGQGAHLPLTFGQGTKVEIK", 16200],
  ["Ab6 Fab (Fab, V domains shown) VH: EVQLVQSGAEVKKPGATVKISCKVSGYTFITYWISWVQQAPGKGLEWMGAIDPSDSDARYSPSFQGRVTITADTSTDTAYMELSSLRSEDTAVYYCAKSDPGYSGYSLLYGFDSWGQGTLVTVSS VL: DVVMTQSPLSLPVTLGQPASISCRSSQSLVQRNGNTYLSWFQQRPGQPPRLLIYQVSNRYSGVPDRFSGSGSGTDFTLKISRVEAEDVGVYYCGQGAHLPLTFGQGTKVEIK", 73100]
]}

Data origin: patent US20230220057A1
